Target: recombinant mouse CD38 Protein (Mus musculus)
Construct: purchased R&D System
Sequence (P56528 whole entry): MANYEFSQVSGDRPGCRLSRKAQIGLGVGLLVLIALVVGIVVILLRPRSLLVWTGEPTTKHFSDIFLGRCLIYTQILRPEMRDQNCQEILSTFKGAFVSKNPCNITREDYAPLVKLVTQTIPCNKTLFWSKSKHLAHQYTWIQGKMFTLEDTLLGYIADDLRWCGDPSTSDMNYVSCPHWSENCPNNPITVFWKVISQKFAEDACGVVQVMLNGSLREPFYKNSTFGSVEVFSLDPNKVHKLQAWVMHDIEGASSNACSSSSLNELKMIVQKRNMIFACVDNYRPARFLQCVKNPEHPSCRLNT
Test: Fluorescence-based NAD+ hydrolase activity assay with mouse recombinant CD38 protein (Assay 5)
Assay type: biochemical
Settings: read-out: Assay 5 Arithmetic mean IC50
measurement-kind: IC50

[[record]]
mol = "CN(C)CCOc1cc(C(=O)Nc2ccnc(C(F)(F)F)c2)nc(-n2ccnc2)c1"
measurement_kind = "IC50"
measured_value = "< 1 nM"

[[record]]
mol = "Cc1cc(C(=O)Nc2ccc(C(N)=O)nc2)nc(-n2ccnc2)c1"
measurement_kind = "IC50"
measured_value = "< 1 nM"

[[record]]
mol = "Cn1ccnc1-c1cccc(C(=O)Nc2cccnc2)n1"
measurement_kind = "IC50"
measured_value = "1 to 50 nM"

[[record]]
mol = "COc1ccc(NC(=O)c2cccc(-n3ccnc3)n2)cn1"
measurement_kind = "IC50"
measured_value = "1 to 50 nM"

[[record]]
mol = "Nc1ccc(-n2ccnc2)nc1C(=O)Nc1ccnc(F)c1"
measurement_kind = "IC50"
measured_value = "< 1 nM"

[[record]]
mol = "Nc1cc(C(=O)Nc2cccnc2)nc(-n2ccnc2)c1"
measurement_kind = "IC50"
measured_value = "1 to 50 nM"

[[record]]
mol = "Cc1cc(NC(=O)c2cccc(-n3ccnc3)n2)cc(C)n1"
measurement_kind = "IC50"
measured_value = "< 1 nM"

[[record]]
mol = "Cc1cc(C(=O)Nc2ccncc2)nc(-n2ccnc2)n1"
measurement_kind = "IC50"
measured_value = "< 1 nM"

[[record]]
mol = "O=C(Nc1ccncc1)c1cccc(-n2ccnc2)n1"
measurement_kind = "IC50"
measured_value = "1 to 50 nM"

[[record]]
mol = "O=C(Nc1ccncn1)c1cccc(-n2ccnc2)n1"
measurement_kind = "IC50"
measured_value = "1 to 50 nM"

[[record]]
mol = "O=C(Nc1ccc(C(F)(F)F)nc1)c1cccc(-n2ccnc2)n1"
measurement_kind = "IC50"
measured_value = "1 to 50 nM"

[[record]]
mol = "Cc1ccc(C(=O)Nc2cccnc2)nc1-n1ccnc1"
measurement_kind = "IC50"
measured_value = "1 to 50 nM"

[[record]]
mol = "COc1ccc(-n2ccnc2)nc1C(=O)Nc1cccnc1"
measurement_kind = "IC50"
measured_value = "1 to 50 nM"

[[record]]
mol = "O=C(Nc1ccnc(C(F)(F)F)c1)c1cc(OC2CC2)nc(-n2ccnc2)n1"
measurement_kind = "IC50"
measured_value = "< 1 nM"

[[record]]
mol = "CC(=O)N(C)c1ccc(NC(=O)c2cccc(-n3ccnc3)n2)cn1"
measurement_kind = "IC50"
measured_value = "1 to 50 nM"

[[record]]
mol = "Cn1ccnc1-c1cccc(C(=O)Nc2ccc(C(F)(F)F)nc2)n1"
measurement_kind = "IC50"
measured_value = "1 to 50 nM"

[[record]]
mol = "Cc1ccc(NC(=O)c2cccc(-n3ccnc3)n2)cn1"
measurement_kind = "IC50"
measured_value = "1 to 50 nM"

[[record]]
mol = "Cc1cncn1-c1cccc(C(=O)Nc2cccnc2)n1"
measurement_kind = "IC50"
measured_value = "51 to 1000 nM"

[[record]]
mol = "CC1(Oc2cc(C(=O)Nc3ccnc(C(F)(F)F)c3)nc(-n3ccnc3)n2)COC1"
measurement_kind = "IC50"
measured_value = "1 to 50 nM"

[[record]]
mol = "O=C(Nc1ccnc(F)c1)c1cccc(-n2ccnc2)n1"
measurement_kind = "IC50"
measured_value = "1 to 50 nM"

[[record]]
mol = "CNC(=O)c1cc(NC(=O)c2cc(C)cc(-n3ccnc3)n2)ccn1"
measurement_kind = "IC50"
measured_value = "< 1 nM"

[[record]]
mol = "O=C(Nc1cccnc1)c1ccc(F)c(-n2ccnc2)n1"
measurement_kind = "IC50"
measured_value = "1 to 50 nM"

[[record]]
mol = "O=C(Nc1ccnc(C(F)(F)F)c1)c1cc(OCC2CCOCC2)cc(-n2ccnc2)n1"
measurement_kind = "IC50"
measured_value = "< 1 nM"

[[record]]
mol = "O=C(O)c1ccc(NC(=O)c2cccc(-n3ccnc3)n2)cn1"
measurement_kind = "IC50"
measured_value = "1 to 50 nM"

[[record]]
mol = "Nc1ccc(-n2ccnc2)nc1C(=O)Nc1ccnc(C(F)(F)F)c1"
measurement_kind = "IC50"
measured_value = "< 1 nM"

[[record]]
mol = "CCOc1cc(C(=O)Nc2ccnc(C(F)(F)F)c2)nc(-n2ccnc2)n1"
measurement_kind = "IC50"
measured_value = "< 1 nM"

[[record]]
mol = "CCN(C(C)=O)c1ccc(NC(=O)c2cccc(-n3ccnc3)n2)cn1"
measurement_kind = "IC50"
measured_value = "1 to 50 nM"

[[record]]
mol = "COCCOc1cc(C(=O)Nc2ccnc(C(F)(F)F)c2)nc(-n2ccnc2)c1"
measurement_kind = "IC50"
measured_value = "< 1 nM"

[[record]]
mol = "NC(=O)c1cc(NC(=O)c2cccc(-n3ccnc3)n2)ccn1"
measurement_kind = "IC50"
measured_value = "1 to 50 nM"

[[record]]
mol = "COc1cc(NC(=O)c2cccc(-n3ccnc3)n2)ccn1"
measurement_kind = "IC50"
measured_value = "1 to 50 nM"

[[record]]
mol = "O=C(Nc1ccnc(C(F)(F)F)c1)c1cccc(-n2ccnc2)n1"
measurement_kind = "IC50"
measured_value = "1 to 50 nM"

[[record]]
mol = "Cc1cc(C(=O)Nc2ccncc2)nc(-n2ccnc2)c1"
measurement_kind = "IC50"
measured_value = "< 1 nM"

[[record]]
mol = "O=C(Nc1ccnc(C(F)(F)F)c1)c1cc(C2CC2)nc(-n2ccnc2)n1"
measurement_kind = "IC50"
measured_value = "< 1 nM"

[[record]]
mol = "NC(=O)c1ccc(NC(=O)c2cccc(-n3ccnc3)n2)cn1"
measurement_kind = "IC50"
measured_value = "1 to 50 nM"

[[record]]
mol = "O=C(Nc1ccnc(C(F)(F)F)c1)c1cc(OCc2ccccc2)cc(-n2ccnc2)n1"
measurement_kind = "IC50"
measured_value = "< 1 nM"

[[record]]
mol = "CNC(=O)c1ccc(NC(=O)c2cccc(-n3ccnc3)n2)cn1"
measurement_kind = "IC50"
measured_value = "< 1 nM"

[[record]]
mol = "COC(=O)c1ccc(NC(=O)c2cccc(-n3ccnc3)n2)cn1"
measurement_kind = "IC50"
measured_value = "1 to 50 nM"

[[record]]
mol = "O=C(Nc1ccc(F)nc1)c1cccc(-n2ccnc2)n1"
measurement_kind = "IC50"
measured_value = "1 to 50 nM"


====

Let's look at some compounds and their measured pIC50.
Biological target: recombinant human CD38 Protein (Homo sapiens, UniProt P28907)
Construct: purchased R&D System
Sequence (P28907 1-300): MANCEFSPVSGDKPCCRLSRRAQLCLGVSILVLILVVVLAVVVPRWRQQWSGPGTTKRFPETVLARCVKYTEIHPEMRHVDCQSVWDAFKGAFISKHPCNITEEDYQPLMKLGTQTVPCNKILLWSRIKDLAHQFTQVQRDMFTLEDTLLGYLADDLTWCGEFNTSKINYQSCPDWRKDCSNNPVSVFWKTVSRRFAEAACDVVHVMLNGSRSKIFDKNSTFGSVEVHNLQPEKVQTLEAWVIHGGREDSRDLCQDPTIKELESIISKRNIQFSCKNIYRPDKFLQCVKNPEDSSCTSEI
Assay: Fluorescence-based NAD+ hydrolase activity assay with human recombinant CD38 protein (Assay 3)
Assay type: biochemical
Settings: read-out: Assay 3 Arithmetic mean IC50
pIC50: −log10 of the molar value.
measurement-kind: pIC50

[[record]]
compound = "CNc1cc(C(=O)Nc2cccnc2)nc(-n2ccnc2)c1 [Compound 68]"
study_target = "recombinant human CD38 Protein (Homo sapiens, UniProt P28907)"
measured_value = "> 9.00"

[[record]]
compound = "CC1(Oc2cc(C(=O)Nc3ccnc(C(F)(F)F)c3)nc(-n3ccnc3)c2)COC1 [Compound 34]"
study_target = "recombinant human CD38 Protein (Homo sapiens, UniProt P28907)"
measured_value = "7.30 to 9.00"

[[record]]
compound = "CNC(=O)c1ccc(NC(=O)c2cccc(-n3ccnc3)n2)cn1 [Compound 2]"
study_target = "recombinant human CD38 Protein (Homo sapiens, UniProt P28907)"
measured_value = "> 9.00"

[[record]]
compound = "COCCOc1cc(C(=O)Nc2ccnc(C(F)(F)F)c2)nc(-n2ccnc2)n1 [Compound 39]"
study_target = "recombinant human CD38 Protein (Homo sapiens, UniProt P28907)"
measured_value = "> 9.00"

[[record]]
compound = "COCCOc1cc(C(=O)Nc2ccnc(C(F)(F)F)c2)nc(-n2ccnc2)c1 [Compound 31]"
study_target = "recombinant human CD38 Protein (Homo sapiens, UniProt P28907)"
measured_value = "7.30 to 9.00"

[[record]]
compound = "CNC(=O)c1cc(NC(=O)c2cccc(-n3ccnc3)n2)ccn1 [Compound 23]"
study_target = "recombinant human CD38 Protein (Homo sapiens, UniProt P28907)"
measured_value = "7.30 to 9.00"

[[record]]
compound = "Cc1ccc(C(=O)Nc2cccnc2)nc1-n1ccnc1 [Compound 58]"
study_target = "recombinant human CD38 Protein (Homo sapiens, UniProt P28907)"
measured_value = "6.00 to 7.29"

[[record]]
compound = "O=C(Nc1cccnc1)c1nc(-n2ccnc2)ccc1F [Compound 62]"
study_target = "recombinant human CD38 Protein (Homo sapiens, UniProt P28907)"
measured_value = "7.30 to 9.00"

[[record]]
compound = "CNC(=O)c1ccc(NC(=O)c2cc(C)cc(-n3ccnc3)n2)cn1 [Compound 57]"
study_target = "recombinant human CD38 Protein (Homo sapiens, UniProt P28907)"
measured_value = "> 9.00"

[[record]]
compound = "COc1cc(NC(=O)c2cccc(-n3ccnc3)n2)ccn1 [Compound 12]"
study_target = "recombinant human CD38 Protein (Homo sapiens, UniProt P28907)"
measured_value = "7.30 to 9.00"

[[record]]
compound = "COc1cc(C(=O)Nc2cccnc2)nc(-n2ccnc2)c1 [Compound 36]"
study_target = "recombinant human CD38 Protein (Homo sapiens, UniProt P28907)"
measured_value = "7.30 to 9.00"

[[record]]
compound = "O=C(Nc1cccnc1)c1ccc(F)c(-n2ccnc2)n1 [Compound 61]"
study_target = "recombinant human CD38 Protein (Homo sapiens, UniProt P28907)"
measured_value = "7.30 to 9.00"

[[record]]
compound = "O=C(Nc1ccnc(C(F)(F)F)c1)c1cc(C2CC2)nc(-n2ccnc2)n1 [Compound 51]"
study_target = "recombinant human CD38 Protein (Homo sapiens, UniProt P28907)"
measured_value = "> 9.00"

[[record]]
compound = "Cn1ccnc1-c1cccc(C(=O)Nc2ccc(C(F)(F)F)nc2)n1 [Compound 47]"
study_target = "recombinant human CD38 Protein (Homo sapiens, UniProt P28907)"
measured_value = "7.30 to 9.00"

[[record]]
compound = "Cc1cc(C(=O)Nc2ccncc2)nc(-n2ccnc2)c1 [Compound 52]"
study_target = "recombinant human CD38 Protein (Homo sapiens, UniProt P28907)"
measured_value = "7.30 to 9.00"

[[record]]
compound = "Cc1cc(C(=O)Nc2ccncc2)nc(-c2cncn2C)c1 [Compound 44]"
study_target = "recombinant human CD38 Protein (Homo sapiens, UniProt P28907)"
measured_value = "7.30 to 9.00"

[[record]]
compound = "O=C(Nc1cccnc1)c1cccc(-n2ccnc2)n1 [Compound 20]"
study_target = "recombinant human CD38 Protein (Homo sapiens, UniProt P28907)"
measured_value = "7.30 to 9.00"

[[record]]
compound = "Cc1cc(C(=O)Nc2cccnc2)nc(-n2ccnc2)n1 [Compound 49]"
study_target = "recombinant human CD38 Protein (Homo sapiens, UniProt P28907)"
measured_value = "> 9.00"

[[record]]
compound = "O=C(Nc1cc(F)nc(F)c1)c1cccc(-n2ccnc2)n1 [Compound 5]"
study_target = "recombinant human CD38 Protein (Homo sapiens, UniProt P28907)"
measured_value = "> 9.00"


Hello, the source for this data is patent US12509451B2, in case you need it.
